- Target Entity: NRAS Q61K (Homo sapiens (Human), UniProt P01111+P62937, Q61K)
- Sequence (P01111 whole entry Q61K): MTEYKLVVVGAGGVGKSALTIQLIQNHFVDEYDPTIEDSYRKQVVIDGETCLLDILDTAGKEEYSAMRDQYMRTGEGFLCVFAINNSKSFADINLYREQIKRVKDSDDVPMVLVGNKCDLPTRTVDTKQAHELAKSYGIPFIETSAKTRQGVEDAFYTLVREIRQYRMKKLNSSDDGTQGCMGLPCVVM
- Sequence (P62937 whole entry): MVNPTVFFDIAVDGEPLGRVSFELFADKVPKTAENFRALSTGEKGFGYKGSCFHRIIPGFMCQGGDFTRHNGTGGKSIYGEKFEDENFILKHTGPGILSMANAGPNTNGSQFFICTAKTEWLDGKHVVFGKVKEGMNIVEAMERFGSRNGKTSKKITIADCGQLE
- Protocol Summary: Ras-Raf (BRAF RBD) disruption / FRET / MOA assay, NRAS Q61K
- Assay type: biochemical
- Experimental Setup: NRAS Q61K; Ras-Raf disruption/FRET/MOA assay; read-out: IC50* NRAS Q61K FRET data
pIC50: −log10 of the molar value.
Measurement Kind: pIC50

>>> endpoint_value("C=CC(=O)N1CC[C@H](C(=O)N(C)[C@H](C(=O)N[C@H]2Cc3cccc(c3)-c3ccc4c(c3)c(c(-c3cccnc3[C@H](C)OC)n4CC)CC(C)(C)COC(=O)[C@@H]3CCCN(N3)C2=O)C(C)C)[C@H]1C (atropisomer, axis not shown)")
"5.00 to 6.00"
>>> endpoint_value("C=CC(=O)N1CC[C@H](C(=O)N2CC[C@H](C)[C@H]2C(=O)N[C@H]2Cc3cccc(c3)-c3ccc4c(c3)c(c(-c3cccnc3[C@H](C)OC)n4CC)CC(C)(C)COC(=O)[C@@H]3CCCN(N3)C2=O)C1 (atropisomer, axis not shown)")
"5.00 to 6.00"
>>> endpoint_value("CO[C@@H](C)c1ncccc1-c1c2c3cc(ccc3n1CC(F)(F)F)-c1cc(CF)cc(c1)C[C@H](NC(=O)[C@@H](COC1CN(C(=O)C#CC(C)(C)N(C)C)C1)C(C)C)C(=O)N1CCC[C@H](N1)C(=O)OCC(C)(C)C2 (atropisomer, axis not shown)")
"< 5.00"
>>> endpoint_value("CCn1c(-c2cccnc2[C@H](C)OC)c2c3cc(ccc31)-c1csc(n1)C[C@H](NC(=O)[C@H](C(C)C)N(C)C(=O)N(C)C1CN(C(=O)/C=C/[C@H]3CCCN3C)C1)C(=O)N1CCC[C@H](N1)C(=O)OCC(C)(C)C2 (atropisomer, axis not shown)")
"6.00 to 7.00"
>>> endpoint_value("C=CC(=O)N1CC[C@H](C(=O)N(C)[C@H](C(=O)N[C@H]2Cc3cccc(c3)-c3ccc4c(c3)c(c(-c3cc5c(nc3[C@H](C)OC)CCN(C)C5)n4CC)CC(C)(C)COC(=O)[C@@H]3CCCN(N3)C2=O)C(C)C)C1 (atropisomer, axis not shown)")
"5.00 to 6.00"
>>> endpoint_value("C=CC(=O)N(C)CCN1CCN(C(=O)N(C)[C@H](C(=O)N[C@H]2Cc3nc(cs3)-c3ccc4c(c3)c(c(-c3cccnc3[C@H](C)OC)n4CC)CC(C)(C)COC(=O)[C@@H]3CCCN(N3)C2=O)C(C)C)CC1 (atropisomer, axis not shown)")
"6.00 to 7.00"
